system: Plasmodium falciparum; assay: microbe, parasite or virus in culture; conditions: Dd2, 72 h
Description: Antiplasmodial activity against asexual blood-stage Plasmodium falciparum Dd2 using 2% haematocrit and 0.2% parasitemia assessed as reduction in fluorescence measured after 72 hrs by Malaria SYBR Green I-based Fluorescence (MSF) assay
pIC50: −log10 of the molar value.
Output met for pIC50 not less than 8; output not met otherwise.

CCC1=C(CC)/C(=C/NC23C[C@H]4C[C@@H](C2)C[C@@H](C3)C4)N=C1c1ccc(-c2ccccc2)[nH]1 | met

Inquiry: Threshold query (pIC50 >= 8) on `CCc1ccc(C2=N/C(=C\NC3CCCCCC3)C3=C2CCCC3)[nH]1`
Reply text: met

Inquiry: Threshold query (pIC50 >= 8) on `CCC1=C(CC)/C(=C/NC23C[C@H]4C[C@@H](C2)C[C@@H](C3)C4)N=C1c1ccc(Br)[nH]1`
Reply text: not met

Inquiry: Threshold query (pIC50 >= 8) on `CCC1=C(CC)/C(=C/NC2CCCCCCC2)N=C1c1ccc(C#N)[nH]1`
Reply text: not met

Inquiry: Threshold query (pIC50 >= 8) on `CCC1=C(CC)/C(=C/NC2CCCCC2)N=C1c1cc2cc(Cl)ccc2[nH]1`
Reply text: not met

Inquiry: Threshold query (pIC50 >= 8) on `CCC1=C(CC)/C(=C/N[C@H]2CC[C@H](C(F)(F)F)CC2)N=C1c1ccc[nH]1`
Reply text: not met

###

Each record here notes measured solubility.
assay: Solubility of the compound in potassium phosphate buffer at pH 7.4 by UV-vis spectroscopy; settings: buffer
# unit: µM | format: bare number

Known solubility results, listed for orientation:
CCc1ccc(C2=N/C(=C\NC3CCCCCC3)C3=C2CCCC3)[nH]1 | 15.4
CCC1=C(CC)/C(=C/N[C@H]2CC[C@H](C(=O)OC)CC2)N=C1c1ccc[nH]1 | 121
CCC1=C(CC)/C(=C/N[C@H]2CC[C@H](C(F)(F)F)CC2)N=C1c1ccc[nH]1 | 314

solubility for `CCC1=C(C)/C(=C/NC2CCCCCC2)N=C1c1ccc(CC)[nH]1` is 12.5

###

tested on: MDR1 (human); assay: Apparent permeability across basolateral to apical side in MDCK transfected with human MDR1 cells incubated for 1 hr by LC-MS analysis; details: dog, MDCK-MDR1
Each record here notes measured Papp B→A at 1 h.
# unit: ×10⁻⁶ cm/s | format: bare number

Known Papp B→A at 1 h results, listed for orientation:
COC1=C(OC)/C(=C/NC23C[C@H]4C[C@@H](C2)C[C@@H](C3)C4)N=C1c1ccc[nH]1 | 0.025
CCC1=C(C)/C(=C/NC2CCCCCC2)N=C1c1ccc(CC)[nH]1 | 0.037
FC(F)(F)[C@H]1CC[C@H](N/C=C2\N=C(c3ccc[nH]3)C3=C2CCCC3)CC1 | 0.52

Short answer on MDR1 (human) for `C[C@H]1CC[C@H](N/C=C2\N=C(c3ccc[nH]3)C3=C2CCCC3)CC1` , Papp B→A at 1 h: 0.23

Short answer on MDR1 (human) for `CCC1=C(CC)/C(=C/NC2CCCCC2)N=C1c1ccc(-c2ccc(OC)cc2)[nH]1` , Papp B→A at 1 h: 0.003

###

assay: Metabolic stability in human liver microsomes assessed as half life measured up to 60 mins by LC/MS analysis; type: ADME, Microsome
endpoint_name: half-life

Known half-life results, listed for orientation:
CCc1ccc(C2=N/C(=C\NC3CCCCCC3)C(C)=C2C)[nH]1 | > 60 min
CCC1=C(CC)/C(=C/NC23C[C@H]4C[C@@H](C2)C[C@@H](C3)C4)N=C1c1ccc(-c2ccc(OC)cc2)[nH]1 | 12.2 min
CCC1=C(CC)/C(=C/NC2CCCCC2)N=C1c1cc2cc(Cl)ccc2[nH]1 | 24.5 min
CC1=C(C)/C(=C/NC2CCCCC2)N=C1c1ccc(C)[nH]1 | > 60 min
CCC1=C(C)/C(=C/NC2CCCCCC2)N=C1c1ccc(CC)[nH]1 | 39.6 min

half-life for `CCC1=C(C)/C(=C/NC2CCCCCC2)N=C1c1ccc(C)[nH]1` is 48.9 min

###

assay: in vitro; settings: human, liver microsomes
Range-based classes on measured microsomal CLint at 1 h: lower segment (below 20 µL/min/mg), middle segment (20 µL/min/mg to below 50 µL/min/mg), upper segment (50 µL/min/mg or more)

Reference set, count: 6
CCC1=C(CC)/C(=C/NC2CCCCC2)N=C1c1ccc(Cl)[nH]1 | lower segment
CCC1=C(CC)/C(=C/NC23CC4CC(CC(C4)C2)C3)N=C1c1cc2ccccc2[nH]1 | lower segment
CCC1=C(C)/C(=C/NC2CCCCCCC2)N=C1c1ccc(CC)[nH]1 | middle segment
COc1ccc(C2=C(c3ccc(OC)cc3)/C(=C/NC34C[C@H]5C[C@@H](C3)C[C@@H](C4)C5)N=C2c2ccc[nH]2)cc1 | middle segment
C(/NC1CCCCC1)=C1/N=C(c2ccc[nH]2)C2=C1CCCC2 | upper segment
C(/NC1CCCCC1)=C1/N=C(c2ccc[nH]2)C2=C1OCCO2 | upper segment

Inquiry: Determine which band this molecule sits in: `CCC1=C(C)/C(=C/NC2CCCCCCC2)N=C1c1ccc(C)[nH]1`
Reply text: middle segment

Inquiry: Determine which band this molecule sits in: `CCC1=C(CC)/C(=C/NC2CCCCCCC2)N=C1c1ccc(C)[nH]1`
Reply text: middle segment

Inquiry: Determine which band this molecule sits in: `COC1=C(OC)/C(=C/NC2CCCCCC2)N=C1c1ccc[nH]1`
Reply text: upper segment

Inquiry: Determine which band this molecule sits in: `CCC1=C(CC)/C(=C/NC2CCCCCCC2)N=C1c1ccc(CC)[nH]1`
Reply text: lower segment

Inquiry: Determine which band this molecule sits in: `FC(F)(F)[C@H]1CC[C@H](N/C=C2\N=C(c3ccc[nH]3)C3=C2CCCC3)CC1`
Reply text: middle segment

Inquiry: Determine which band this molecule sits in: `CCC1=C(CC)/C(=C/N[C@H]2CC[C@H](C)CC2)N=C1c1ccc[nH]1`
Reply text: upper segment

Inquiry: Determine which band this molecule sits in: `C[C@H]1CC[C@H](N/C=C2\N=C(c3ccc[nH]3)C3=C2CCCC3)CC1`
Reply text: upper segment

Inquiry: Determine which band this molecule sits in: `COc1ccc(Cc2ccc(C3=N/C(=C\NC4CCCCC4)C4=C3OCCO4)[nH]2)cc1`
Reply text: lower segment

Inquiry: Determine which band this molecule sits in: `CCC1=C(CC)/C(=C/NC2CCCCCC2)N=C1c1ccc(Cc2ccc(OC)cc2)[nH]1`
Reply text: lower segment

Inquiry: Determine which band this molecule sits in: `CCC1=C(CC)/C(=C/NC23C[C@H]4C[C@@H](C2)C[C@@H](C3)C4)N=C1c1ccc(Br)[nH]1`
Reply text: lower segment

###

tested on: Plasmodium yoelii; test: Antimalarial activity against erythrocytic Plasmodium yoelii MRA-428 infected in CF1 mouse assessed as reduction in parasitemia at 10 mg/kg, po once daily for 4 days measured on day 5; type: functional; parameters: scale not given: the % may be the effect or the level left; conditions: time 4 day
Output TRUE for Activity not less than 50%; output FALSE otherwise.

Reference set, count: 3
CCC1=C(CC)/C(=C/NC2CCCCC2)N=C1c1ccc(Cc2ccc(OC)cc2)[nH]1 | FALSE
CCC1=C(CC)/C(=C/NC2CCCCC2)N=C1c1ccc(-c2ccc(OC)cc2)[nH]1 | FALSE
CCC1=C(C)/C(=C/NC2CCCCCC2)N=C1c1ccc[nH]1 | TRUE

Inquiry: Threshold query (Activity >= 50%) on `CCc1ccc(C2=N/C(=C\NC3CCCCCC3)C3=C2CCCC3)[nH]1`
Reply text: FALSE

Inquiry: Threshold query (Activity >= 50%) on `CCC1=C(CC)/C(=C/NC2CCCCCCC2)N=C1c1ccc(-c2ccc(OC)cc2)[nH]1`
Reply text: FALSE

Inquiry: Threshold query (Activity >= 50%) on `COc1ccc(Cc2ccc(C3=N/C(=C\NC4CCCCCC4)C4=C3CCCC4)[nH]2)cc1`
Reply text: FALSE

Inquiry: Threshold query (Activity >= 50%) on `CCC1=C(CC)/C(=C/N[C@H]2CC[C@H](C)CC2)N=C1c1ccc[nH]1`
Reply text: TRUE

Inquiry: Threshold query (Activity >= 50%) on `CCC1=C(CC)/C(=C/NC2CCCCCCC2)N=C1c1ccc(-c2ccccc2)[nH]1`
Reply text: FALSE

Inquiry: Threshold query (Activity >= 50%) on `CCC1=C(CC)/C(=C/NC23C[C@H]4C[C@@H](C2)C[C@@H](C3)C4)N=C1c1ccc(Cc2ccc(OC)cc2)[nH]1`
Reply text: FALSE

Inquiry: Threshold query (Activity >= 50%) on `CCC1=C(C)/C(=C/NC2CCCCC2)N=C1c1ccc(C)[nH]1`
Reply text: TRUE

Inquiry: Threshold query (Activity >= 50%) on `CCC1=C(CC)/C(=C/NC23C[C@H]4C[C@@H](C2)C[C@@H](C3)C4)N=C1c1ccc(CC)[nH]1`
Reply text: TRUE

Inquiry: Threshold query (Activity >= 50%) on `CCC1=C(CC)/C(=C/NC2CCCCCC2)N=C1c1ccc(Cc2ccc(OC)cc2)[nH]1`
Reply text: FALSE

Inquiry: Threshold query (Activity >= 50%) on `CCC1=C(CC)/C(=C/NC2CCCCCCC2)N=C1c1ccc(Br)[nH]1`
Reply text: FALSE

Data origin, for the record: ChEMBL document CHEMBL6178021
